test: Clearance in Beagle dog at 1 mg/kg, iv by LC/MS method; format: ADME, organism-based, Canis lupus familiaris; settings: in vivo
We begin with a simple list: items and their reported clearance.
Field format: number, assumed mL/min/kg, no unit text.

Past entries and their recorded results:
COC(=O)N[C@H](C(=O)N1CCC[C@H]1c1ncc(-c2cc(F)c3c(c2)O[C@@H](c2ccc(C4CC4)s2)n2c-3cc3cc(-c4cnc([C@@H]5CCCN5C(=O)[C@@H](NC(=O)OC)C5C[C@@H](C)O[C@@H](C)C5)[nH]4)ccc32)[nH]1)C(C)C (some centres undefined); 3
COC(=O)N[C@H](C(=O)N1CCC[C@H]1c1ncc(-c2cc(F)c3c(c2)O[C@@H](c2ccc(C4CC4)s2)n2c-3cc3cc(-c4cnc([C@@H]5CCCN5C(=O)[C@@H](NC(=O)OC)C5C[C@@H](C)O[C@H](C)C5)[nH]4)ccc32)[nH]1)C(C)C (some centres undefined); 2.6
COC(=O)N[C@H](C(=O)N1CCC[C@H]1c1ncc(-c2cc(F)c3c(c2)O[C@@H](c2ccc(C4CC4)s2)n2c-3cc3cc(-c4cnc([C@@H]5CCCN5C(=O)[C@@H](NC(=O)OC)C5CCOCC5)[nH]4)ccc32)[nH]1)C(C)C; 4

Turning now to a further record.
INPUT: Read off the recorded clearance for COC(=O)N[C@H](C(=O)N1CCC[C@H]1c1ncc(-c2cc(F)c3c(c2)O[C@@H](c2ccc(C4CC4)s2)n2c-3cc3cc(-c4cnc([C@@H]5CCCN5C(=O)[C@@H](NC(=O)OC)[C@@H]5CCOC(C)(C)C5)[nH]4)ccc32)[nH]1)C(C)C
OUTPUT: 2.9

====

assay: Drug level in Beagle dog at 5 mg/kg, po measured at 24 hrs by LC/MS method; assay type: ADME, organism-based, Canis lupus familiaris; conditions: in vivo, read-out: Drug uptake
quantity kind: concentration at 24 h (nM)
Numeric answer only, unit nM assumed.

A selection of reference data follows.
COC(=O)N[C@H](C(=O)N1CCC[C@H]1c1ncc(-c2cc(F)c3c(c2)O[C@@H](c2ccc(C4CC4)s2)n2c-3cc3cc(-c4cnc([C@@H]5CCCN5C(=O)[C@@H](NC(=O)OC)C5CCOCC5)[nH]4)ccc32)[nH]1)C(C)C; 22
COC(=O)N[C@H](C(=O)N1CCC[C@H]1c1ncc(-c2cc(F)c3c(c2)O[C@@H](c2ccc(C4CC4)s2)n2c-3cc3cc(-c4cnc([C@@H]5CCCN5C(=O)[C@@H](NC(=O)OC)C5C[C@@H](C)O[C@@H](C)C5)[nH]4)ccc32)[nH]1)C(C)C (some centres undefined); 11
COC(=O)N[C@H](C(=O)N1CCC[C@H]1c1ncc(-c2cc(F)c3c(c2)O[C@@H](c2ccc(C4CC4)s2)n2c-3cc3cc(-c4cnc([C@@H]5CCCN5C(=O)[C@@H](NC(=O)OC)C5C[C@@H](C)O[C@H](C)C5)[nH]4)ccc32)[nH]1)C(C)C (some centres undefined); 87

INPUT: // fetch concentration at 24 h given entry COC(=O)N[C@H](C(=O)N1CCC[C@H]1c1ncc(-c2cc(F)c3c(c2)O[C@@H](c2ccc(C4CC4)s2)n2c-3cc3cc(-c4cnc([C@@H]5CCCN5C(=O)[C@@H](NC(=O)OC)[C@@H]5CCOC(C)(C)C5)[nH]4)ccc32)[nH]1)C(C)C
OUTPUT: 29

====

experiment: Oral bioavailability in Wistar Han rat at 10 mg/kg by LC/MS method; type: ADME, organism-based; settings: in vivo
# Lookup of reported bioavailability keyed by entry
Could you give me the number in %? Just the number is fine.

COC(=O)N[C@H](C(=O)N1CCC[C@H]1c1ncc(-c2cc(F)c3c(c2)O[C@@H](c2cnc(C4CC4)s2)n2c-3cc3cc(-c4cnc([C@@H]5CCCN5C(=O)[C@@H](NC(=O)OC)[C@@H]5CCOC(C)(C)C5)[nH]4)ccc32)[nH]1)C(C)C; 2.8

INPUT: Report bioavailability, nothing else, for this molecule: COC(=O)N[C@H](C(=O)N1CCC[C@H]1c1ncc(-c2ccc3c(c2)cc2n3[C@H](c3ccc(C4CC4)s3)Oc3cc(-c4cnc([C@@H]5CCCN5C(=O)[C@@H](NC(=O)OC)[C@@H]5CCOC(C)(C)C5)[nH]4)cc(F)c3-2)[nH]1)C(C)C
OUTPUT: 2

====

molecular target: Nonstructural protein 5A (Hepatitis C virus); test: Inhibition of NS5A in HCV genotype 4a infected in HuH7 replicon cells assessed as decrease in viral replication after 3 days by RT-PCR method; type: cell-based; settings: Hepatitis C virus subtype 4a
quantity kind: EC90 (pM)
Field format: number, assumed pM, no unit text.

// known answers, use as guide
COC(=O)N[C@H](C(=O)N1CCC[C@H]1c1ncc(-c2cc(F)c3c(c2)O[C@@H](c2ccc(C4CC4)s2)n2c-3cc3cc(-c4cnc([C@@H]5CCCN5C(=O)[C@@H](NC(=O)OC)C5CC(C)(C)OC(C)(C)C5)[nH]4)ccc32)[nH]1)C(C)C; 4
COC(=O)N[C@H](C(=O)N1CCC[C@H]1c1ncc(-c2cc(F)c3c(c2)O[C@@H](c2ccc(C4CC4)s2)n2c-3cc3cc(-c4cnc([C@@H]5CCCN5C(=O)[C@@H](NC(=O)OC)C5CC6CCC(C5)O6)[nH]4)ccc32)[nH]1)C(C)C (some centres undefined); 8

INPUT: Fill in EC90 for record COC(=O)N[C@H](C(=O)N1CCC[C@H]1c1ncc(-c2cc(F)c3c(c2)O[C@@H](c2ccc(C4CC4)s2)n2c-3cc3cc(-c4cnc([C@@H]5CCCN5C(=O)[C@@H](NC(=O)OC)[C@H]5CCOC(C)(C)C5)[nH]4)ccc32)[nH]1)C(C)C
OUTPUT: 7

INPUT: Please list EC90 recorded for the molecule COC(=O)N[C@H](C(=O)N1CCC[C@H]1c1ncc(-c2cc(F)c3c(c2)O[C@@H](c2ccc(C4CC4)s2)n2c-3cc3cc(-c4cnc([C@@H]5CCCN5C(=O)[C@@H](NC(=O)OC)C5CCO[C@H](C)C5)[nH]4)ccc32)[nH]1)C(C)C (some centres undefined)
OUTPUT: 10

====

test: Cmax in Wistar Han rat at 10 mg/kg, po by LC/MS method; format: ADME, organism-based; design: dose 10 mg/kg, route oral; settings: in vivo
quantity kind: Cmax

INPUT: Name the recorded Cmax of the compound listed here: COC(=O)N[C@H](C(=O)N1CCC[C@H]1c1ncc(-c2cc(F)c3c(c2)O[C@@H](c2ccc(C4CC4)s2)n2c-3cc3cc(-c4cnc([C@@H]5CCCN5C(=O)[C@@H](NC(=O)OC)C5CC(C)(C)OC(C)(C)C5)[nH]4)ccc32)[nH]1)C(C)C
OUTPUT: 76 nM

====

assay: Oral bioavailability in Wistar Han rat at 10 mg/kg by LC/MS method; type: ADME, organism-based; details: in vivo
quantity kind: bioavailability (%)
// note: answer is a bare numeric in %

Check out these entries, answers already filled in.
COC(=O)N[C@H](C(=O)N1CCC[C@H]1c1ncc(-c2cc(F)c3c(c2)O[C@@H](c2ccc(C4CC4)s2)n2c-3cc3cc(-c4cnc([C@@H]5CCCN5C(=O)[C@@H](NC(=O)OC)C5CCOC6(CC6)C5)[nH]4)ccc32)[nH]1)C(C)C (some centres undefined); 1.9
COC(=O)N[C@H](C(=O)N1CCC[C@H]1c1ncc(-c2cc(F)c3c(c2)O[C@@H](c2ccc4c(c2)OCCC4)n2c-3cc3cc(-c4cnc([C@@H]5CCCN5C(=O)[C@@H](NC(=O)OC)[C@@H]5CCOC(C)(C)C5)[nH]4)ccc32)[nH]1)C(C)C; 1.2
CCc1ccc([C@@H]2Oc3cc(-c4cnc([C@@H]5CCCN5C(=O)[C@@H](NC(=O)OC)C(C)C)[nH]4)cc(F)c3-c3cc4cc(-c5cnc([C@@H]6CCCN6C(=O)[C@@H](NC(=O)OC)[C@@H]6CCOC(C)(C)C6)[nH]5)ccc4n32)s1; 3.5

INPUT: Read the entry COC(=O)N[C@H](C(=O)N1CCC[C@H]1c1ncc(-c2cc(F)c3c(c2)O[C@@H](c2ccc(C4CC4)s2)n2c-3cc3cc(-c4cnc([C@@H]5CCCN5C(=O)[C@@H](NC(=O)OC)[C@H]5CCOC(C)(C)C5)[nH]4)ccc32)[nH]1)C(C)C and write its reported bioavailability.
OUTPUT: 1.6

====

Recorded EC90 for the following compounds
system: Nonstructural protein 5A (Hepatitis C virus), Q5L478 [Y93H]; assay: Inhibition of NS5A Y93H mutant in HCV genotype 1a infected in HuH7 replicon cells assessed as decrease in viral replication after 3 days by RT-PCR method; type: cell-based; conditions: Hepatitis C virus subtype 1a
Sequence (Q5L478 entry or part of it Y93H): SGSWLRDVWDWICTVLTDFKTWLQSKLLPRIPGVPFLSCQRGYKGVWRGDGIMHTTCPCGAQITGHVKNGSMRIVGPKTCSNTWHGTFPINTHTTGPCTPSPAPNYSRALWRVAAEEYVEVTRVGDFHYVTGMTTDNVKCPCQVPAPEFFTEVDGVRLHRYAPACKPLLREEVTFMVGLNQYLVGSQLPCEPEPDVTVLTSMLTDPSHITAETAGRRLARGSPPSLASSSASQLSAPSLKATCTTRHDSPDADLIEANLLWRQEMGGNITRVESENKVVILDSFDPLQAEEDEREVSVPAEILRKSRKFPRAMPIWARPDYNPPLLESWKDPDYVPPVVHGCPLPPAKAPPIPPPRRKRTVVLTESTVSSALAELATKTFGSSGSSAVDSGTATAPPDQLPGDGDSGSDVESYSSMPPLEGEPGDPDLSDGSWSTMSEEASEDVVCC
# unit: pM | format: bare number

COC(=O)N[C@H](C(=O)N1CCC[C@H]1c1ncc(-c2cc(F)c3c(c2)O[C@@H](c2nc4c(s2)CCC4)n2c-3cc3cc(-c4cnc([C@@H]5CCCN5C(=O)[C@@H](NC(=O)OC)[C@@H]5CCOC(C)(C)C5)[nH]4)ccc32)[nH]1)C(C)C; 590

INPUT: Fill in EC90 for COC(=O)N[C@H](C(=O)N1CCC[C@H]1c1ncc(-c2cc(F)c3c(c2)O[C@@H](c2ccc(C4CC4)s2)n2c-3cc3cc(-c4cnc([C@@H]5CCCN5C(=O)[C@@H](NC(=O)OC)C5CC6CCC(C5)O6)[nH]4)ccc32)[nH]1)C(C)C (some centres not stated) tested with Nonstructural protein 5A (Hepatitis C virus), Q5L478 [Y93H].
OUTPUT: 28
